assay: in vivo; parameters: species or system Swiss Mouse; settings: male, Swiss, mouse, in vivo, iv, 10 mg/kg
endpoint.label: AUC(0-inf) (ng·h/mL)
Write the answer as a number in ng·h/mL, unit excluded.

response.value for C=CC1=C(C(=O)O)N2C(=O)[C@@H](NC(=O)/C(=N\OCC(=O)O)c3csc(N)n3)[C@H]2SC1 (field: AUC(0-inf)) = 37200

###

tested on: Klebsiella pneumoniae (KPN) isolates; test: MIC of compounds alone and combined with antibacterials, broth microdilution (CLSI); format: cell-based; conditions: KPN 6299; AF1 @ 4 μg/mL
endpoint.label: MIC ATB in combination (µg/mL)
Write the answer as a number in µg/mL, unit excluded.

Worked examples follow.
>>> value_measured("CC(C)(O/N=C(\\C(=O)N[C@@H]1C(=O)N2C(C(=O)[O-])=C(C[n+]3ccccc3)CS[C@H]12)c1csc(N)n1)C(=O)O")
0.5
>>> value_measured("CO/N=C(\\C(=O)N[C@@H]1C(=O)N2C(C(=O)O)=C(COC(N)=O)CS[C@H]12)c1ccco1")
16

Okay, next one:
response.value for CC1(C)S[C@@H]2[C@H](NC(=O)[C@H](N)c3ccc(O)cc3)C(=O)N2[C@H]1C(=O)O (field: MIC ATB in combination) = 256
